Molecular target: ERα (Homo sapiens, UniProt P03372)
Construct: host or cells: MCF7
Sequence (P03372 1-595): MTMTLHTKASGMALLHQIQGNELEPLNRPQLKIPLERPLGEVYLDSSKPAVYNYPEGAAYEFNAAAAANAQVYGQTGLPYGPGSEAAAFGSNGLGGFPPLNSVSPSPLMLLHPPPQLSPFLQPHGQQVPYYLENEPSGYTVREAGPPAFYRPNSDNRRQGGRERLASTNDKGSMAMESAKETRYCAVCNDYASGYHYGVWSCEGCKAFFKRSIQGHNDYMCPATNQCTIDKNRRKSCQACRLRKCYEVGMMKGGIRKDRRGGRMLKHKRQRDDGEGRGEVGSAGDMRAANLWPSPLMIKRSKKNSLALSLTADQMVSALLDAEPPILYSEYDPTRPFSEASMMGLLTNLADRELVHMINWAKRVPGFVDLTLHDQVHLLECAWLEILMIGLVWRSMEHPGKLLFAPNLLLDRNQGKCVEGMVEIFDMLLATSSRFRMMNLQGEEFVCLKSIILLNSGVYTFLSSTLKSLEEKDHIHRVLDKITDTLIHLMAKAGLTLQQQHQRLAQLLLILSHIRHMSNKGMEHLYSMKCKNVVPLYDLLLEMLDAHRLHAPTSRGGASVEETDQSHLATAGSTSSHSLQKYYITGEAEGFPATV
Test: Estrogen receptor degradation activity: breast cancer cell ERα in cell western assay in MCF7 cells
Type: cell-based
Details: 4 hours, relative to fulvestrant 0.1 μM positive control
# label = y if % Degradation At 0.3 μM < 80% else n

>>> df
                                test_smiles  label_value
0  FCCCN1CC[C@H](Oc2ccc(C3=C(c4ccc(Cl)cc4Cl)CCCc4c3ccc3[nH]ccc43)cc2)C1            n
1  N#Cc1ccc(C2=C(c3ccc(CC4CN(CCCF)C4)cc3)c3ccc4[nH]ccc4c3CCC2)cc1            y
2  Cc1c(Cl)cccc1C1=C(c2ccc(NC3CN(CCCF)C3)cc2)c2ccc3[nH]ccc3c2CCC1            n
3  N#Cc1cccc(C2=C(c3ccc(CC4CN(CCCF)C4)cc3)c3ccc4[nH]ccc4c3CCC2)c1            y
4  COc1nccc(C2=C(c3ccc(CC4CN(CCCF)C4)cc3)c3ccc4[nH]ccc4c3CCC2)c1F            n
5  FCCCN1CC(Cc2ccc(C3=C(C4=CCOCC4)CCCc4c3ccc3[nH]ccc43)cc2)C1            y
6  Cc1c(Cl)cccc1C1=C(c2ccc(N[C@H]3CCN(CCCF)C3)cc2)c2ccc3[nH]ccc3c2CCC1            n
